Overview of recorded koff for various binders
# measurement.target: T1, FR3exFc (human)
# T1 construct: also called FGFR3/Fc; FR3/Fc
# T1 sequence (chain, as listed by the source limits assumed): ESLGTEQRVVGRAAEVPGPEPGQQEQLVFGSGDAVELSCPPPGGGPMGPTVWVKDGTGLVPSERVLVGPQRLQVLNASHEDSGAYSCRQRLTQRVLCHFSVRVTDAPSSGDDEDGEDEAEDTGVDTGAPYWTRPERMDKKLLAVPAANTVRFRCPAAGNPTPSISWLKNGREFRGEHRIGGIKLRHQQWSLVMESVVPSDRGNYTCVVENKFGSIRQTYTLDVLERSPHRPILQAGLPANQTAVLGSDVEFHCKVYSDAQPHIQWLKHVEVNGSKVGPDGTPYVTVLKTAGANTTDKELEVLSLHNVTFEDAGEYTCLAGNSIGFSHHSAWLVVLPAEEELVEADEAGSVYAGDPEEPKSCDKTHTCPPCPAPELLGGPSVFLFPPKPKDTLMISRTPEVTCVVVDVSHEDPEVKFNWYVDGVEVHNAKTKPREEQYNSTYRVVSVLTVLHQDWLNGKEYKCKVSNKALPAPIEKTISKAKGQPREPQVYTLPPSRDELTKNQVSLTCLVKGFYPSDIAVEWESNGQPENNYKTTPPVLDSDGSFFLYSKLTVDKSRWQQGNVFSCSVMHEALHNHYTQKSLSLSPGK
# test.description: BIACORE
endpoint: koff (s⁻¹)

INSERT INTO assay_data (binder, experimental_result) VALUES
  ('MSPRO2 (Fab, V domains shown) VH: QVQLVQSGAEVKKPGASVKVSCKASGYTFTSYYMHWVRQAPGQGLEWMGWINPNSGGTNYAQKFQGRVTMTRDTSISTAYMELSSLRSEDTAVYYCARDFLGYEFDYWGQGTLVTVSS VL: DIELTQPPSVSVAPGQTARISCSGDALGDKYASWYQQKPGQAPVLVIYDDSDRPSGIPERFSGSNSGNTATLTISGTQAEDEADYYCQSYDYSADYVFGGGTKLTVLG', 0.02),
  ('MSPRO26 (Fab, V domains shown) VH: QVQLVQSGAEVKKPGASVKVSCKASGYTFTSYYMHWVRQAPGQGLEWMGWINPNSGGTNYAQKFQGRVTMTRDTSISTAYMELSSLRSEDTAVYYCARGYWYAYFTYINYGYFDNWGQGTLVTVSS VL: DIALTQPASVSGSPGQSITISCTGTSSDVGGYNYVSWYQQHPGKAPKLMIYDVSNRPSGVSNRFSGSKSGNTASLTISGLQAEDEADYYCQSYDNNSDVVFGGGTKLTVLG', 0.0005),
  ('MSPRO12 (Fab, V domains shown, HuCAL Fab, framework VH2_L3) VH: QVQLKESGPALVKPTQTLTLTCTFSGFSLSTSGVGVGWIRQPPGKALEWLALIDWDDDKYYSTSLKTRLTISKDTSKNQVVLTMTNMDPVDTATYYCARYHSWYEMGYYGSTVGYMFDYWGQGTLVTVSS VL: DIELTQPPSVSVAPGQTARISCSGDALGDKYASWYQQKPGQAPVLVIYDDSDRPSGIPERFSGSNSGNTATLTISGTQAEDEADYYCQSYDFDFAVFGGGTKLTVLG', 0.0023);
